Parameter: pKi. Scope: all listed entries.
Biological target: Sigma non-opioid intracellular receptor 1 (Cavia porcellus)
Sequence (Q60492 whole entry): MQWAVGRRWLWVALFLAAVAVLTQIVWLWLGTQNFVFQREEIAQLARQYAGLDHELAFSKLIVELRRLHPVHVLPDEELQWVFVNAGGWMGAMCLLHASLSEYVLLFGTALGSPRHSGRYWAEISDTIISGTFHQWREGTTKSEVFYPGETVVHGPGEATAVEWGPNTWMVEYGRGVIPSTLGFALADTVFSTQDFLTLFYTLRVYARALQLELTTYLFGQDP
Experiment: Displacement of [3H]-(+)-pentazocine from Sigma1 receptor in guinea pig cortex membranes incubated for 120 mins by microbeta scintillation counting method
pKi: −log10 of the molar value.

compound: Fc1ccc(C(SCCCN2CCN(CCCc3ccccc3)CC2)c2ccc(F)cc2)cc1
pKi: 7.53

compound: COc1ccc(CC(O)CN2CCN(CCSC(c3ccc(F)cc3)c3ccc(F)cc3)CC2)cc1 (configuration not stated)
pKi: 8.02

compound: C[C@H](O)CN1[C@H](C)CN(CCSC(c2ccc(F)cc2)c2ccc(F)cc2)C[C@@H]1C
pKi: 8.23

compound: O[C@@H](Cc1ccccc1)CN1CCN(CCSC(c2ccc(F)cc2)c2ccc(F)cc2)CC1
pKi: 8.11

compound: C[C@@H]1CN(CCSC(c2ccc(F)cc2)c2ccc(F)cc2)C[C@H](C)N1
pKi: 6.95

compound: [O-][S+](CCN1CCN(C[C@@H](O)Cc2ccccc2)CC1)C(c1ccc(F)cc1)c1ccc(F)cc1 (some centres not stated)
pKi: 7.56

compound: OC(Cc1ccc(F)cc1)CN1CCN(CCSC(c2ccc(F)cc2)c2ccc(F)cc2)CC1 (configuration not stated)
pKi: 7.53

====

Molecular target: Sodium-dependent serotonin transporter (Rattus norvegicus, UniProt P31652)
Sequence (P31652 whole entry): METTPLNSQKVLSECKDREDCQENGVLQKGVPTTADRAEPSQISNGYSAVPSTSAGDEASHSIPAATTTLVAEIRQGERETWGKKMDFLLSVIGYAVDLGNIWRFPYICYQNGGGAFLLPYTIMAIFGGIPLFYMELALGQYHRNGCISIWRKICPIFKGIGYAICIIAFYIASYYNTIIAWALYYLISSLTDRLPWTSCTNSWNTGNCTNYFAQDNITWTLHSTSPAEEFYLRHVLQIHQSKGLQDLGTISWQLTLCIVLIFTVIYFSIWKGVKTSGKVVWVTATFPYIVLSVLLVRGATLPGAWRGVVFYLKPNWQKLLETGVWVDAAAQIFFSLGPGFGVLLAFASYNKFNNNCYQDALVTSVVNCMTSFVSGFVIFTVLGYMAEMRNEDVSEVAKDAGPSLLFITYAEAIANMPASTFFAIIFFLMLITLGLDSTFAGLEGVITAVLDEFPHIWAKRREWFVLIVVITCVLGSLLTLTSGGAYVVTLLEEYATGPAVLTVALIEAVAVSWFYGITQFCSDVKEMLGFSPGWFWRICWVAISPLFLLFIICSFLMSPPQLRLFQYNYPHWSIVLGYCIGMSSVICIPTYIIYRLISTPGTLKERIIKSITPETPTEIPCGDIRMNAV
// assign 1 if Ki falls strictly below 10 µM, else -1 (ties count as -1)

compound: [O-][S+](CCN1CCN(CC(O)Cc2ccc(F)cc2)CC1)C(c1ccc(F)cc1)c1ccc(F)cc1 (centres undefined)
classification: -1
--
compound: C[C@@H](O)CN1CCN(CCSC(c2ccc(F)cc2)c2ccc(F)cc2)CC1
classification: 1
--
compound: O[C@@H](Cc1ccccc1)CN1CCN(CCSC(c2ccc(F)cc2)c2ccc(F)cc2)CC1
classification: 1
--
compound: C[C@@H]1CN(CCSC(c2ccc(F)cc2)c2ccc(F)cc2)C[C@H](C)N1
classification: -1
--
compound: [O-][S+](CCN1CCN(C[C@@H](O)Cc2ccccc2)CC1)C(c1ccc(F)cc1)c1ccc(F)cc1 (some centres undefined)
classification: -1
--
compound: CCC(=O)N1CCN(CCSC(c2ccc(F)cc2)c2ccc(F)cc2)CC1
classification: 1
--
compound: [O-][S+](CCN1CCN(CC(O)Cc2ccc(C(F)(F)F)cc2)CC1)C(c1ccc(F)cc1)c1ccc(F)cc1 (centres undefined)
classification: -1
--
compound: C[C@@H]1CN(CCSC(c2ccc(F)cc2)c2ccc(F)cc2)C[C@H](C)N1C[C@@H](C)O
classification: -1
--
compound: OC(Cc1ccc(C(F)(F)F)cc1)CN1CCN(CCSC(c2ccc(F)cc2)c2ccc(F)cc2)CC1 (centres undefined)
classification: 1
